# SYSTEM UNDER TEST: T1, GFP-Pif1 G291P (Saccharomyces cerevisiae, UniProt P07271 40-859, G291P)
# T1 sequence: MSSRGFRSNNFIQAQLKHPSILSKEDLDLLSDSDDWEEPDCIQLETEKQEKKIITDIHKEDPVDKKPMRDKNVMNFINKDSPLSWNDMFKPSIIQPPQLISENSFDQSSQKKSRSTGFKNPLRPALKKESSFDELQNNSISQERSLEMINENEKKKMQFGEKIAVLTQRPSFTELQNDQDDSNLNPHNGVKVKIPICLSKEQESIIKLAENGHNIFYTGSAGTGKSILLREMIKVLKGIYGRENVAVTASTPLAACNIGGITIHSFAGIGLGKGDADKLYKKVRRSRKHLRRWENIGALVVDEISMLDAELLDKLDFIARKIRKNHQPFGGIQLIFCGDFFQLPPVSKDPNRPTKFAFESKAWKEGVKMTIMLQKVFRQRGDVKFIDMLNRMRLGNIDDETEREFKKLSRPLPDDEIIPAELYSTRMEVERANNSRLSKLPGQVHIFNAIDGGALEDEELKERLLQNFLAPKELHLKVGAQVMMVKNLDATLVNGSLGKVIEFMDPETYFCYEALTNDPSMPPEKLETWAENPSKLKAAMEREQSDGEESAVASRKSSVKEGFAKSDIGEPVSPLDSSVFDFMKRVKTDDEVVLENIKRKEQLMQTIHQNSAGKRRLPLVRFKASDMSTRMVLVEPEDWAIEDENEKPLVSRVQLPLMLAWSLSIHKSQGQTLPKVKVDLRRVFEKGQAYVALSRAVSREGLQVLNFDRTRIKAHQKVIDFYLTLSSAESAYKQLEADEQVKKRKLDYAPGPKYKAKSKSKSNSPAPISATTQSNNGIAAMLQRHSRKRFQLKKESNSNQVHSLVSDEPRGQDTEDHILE
# ASSAY OVERVIEW: EMSA; no ATP, 5 mM Mg2+; 35 mM Tris-HCl pH 7.5, 1 mM DTT, 5 mM MgCl2, 60 mM KCl, 0.1 mg/ml BSA, no ATP, 30 min at 30 C; 5 nM ssDNA
# RUN CONDITIONS: protein: recombinant; tags: N-terminal superfolder GFP; Ni-NTA purified; label: 5' Alexa647
READOUT KIND: pKd
One number for each entry, as −log10 of the molar value.

Reported pKd ( GCTAGCAGTAGCCAGCATCGAACGTACGATCGGTAACGTA (ssDNA) [40-nt ssDNA] ) = 7.21
